# IC50 per record follows
# SYSTEM NAME: active p38 alpha enzyme (Upstate Biotechnology) (Homo sapiens)
# Construct: purchased Upstate Biotechnology
# EXPERIMENT SUMMARY: p38α biochemical assay (ATP turnover, luminescent detection, Cambrex PKlight)
# RUN PARAMETERS: p38α kinase; Table 1 Biological Activity

COMPOUND: CC(C)NC(=O)c1csc(-c2c(-c3ccc(F)cc3)noc2CNc2ccc(Cl)c(Cl)c2)n1
IC50: > 1000 nM
--
COMPOUND: C#CCN(Cc1nc(-c2ccc(F)cc2)c(-c2nc(C(=O)NC(C)C)cs2)o1)Cc1ccc(Cl)cc1Cl
IC50: > 1000 nM
--
COMPOUND: CN1CCCC1CCNC(=O)c1csc(-c2c(-c3ccc(F)cc3)n[nH]c2C2CCNCC2)n1 (centres unmarked)
IC50: > 1000 nM
--
COMPOUND: CC(=O)c1ccc(NCc2nc(-c3ccc(F)cc3)c(-c3nc(C(=O)NC(C)C)cs3)o2)cc1
IC50: > 1000 nM
--
COMPOUND: O=C(NCCN1CCCCC1)c1csc(-c2c(-c3ccc(F)cc3)n[nH]c2C2CCNCC2)n1
IC50: > 1000 nM
--
COMPOUND: Cc1nc(-c2ccc(F)cc2)c(-c2nc(C(=O)Nc3ccc4ncsc4c3)cs2)s1
IC50: > 1000 nM
--
COMPOUND: CC(C)NC(=O)c1csc(-c2c(-c3ccc(F)cc3)noc2CNC2CCCc3ccccc32)n1 (centres unmarked) [Example 1378]
IC50: > 1000 nM
--
COMPOUND: CCN(CCCCO)C(=O)c1csc(-c2sc(C)nc2-c2ccc(F)cc2)n1
IC50: > 1000 nM

Given the compound Cc1nc(-c2ccc(F)cc2)c(-c2nc(C(=O)NC3CCN(Cc4ccccc4)C3)cs2)s1 (centres unmarked) , what is its reported IC50?
≤ 1000 nM

Moving on to CC(C)NC(=O)c1csc(-c2oc(CN3CCN(CC4CCCCC4)CC3)nc2-c2ccc(F)cc2)n1
> 1000 nM

And Cc1cccc(NC(=O)c2csc(-c3sc(C)nc3-c3ccc(F)cc3)n2)c1 ?
> 1000 nM

Can you check CC(C)NC(=O)c1csc(-c2oc(CNCCc3cccc(Cl)c3)nc2-c2ccc(F)cc2)n1 next?
> 1000 nM

Please answer likewise for O=C(NC1CCC1)c1csc(-c2c(-c3ccc(F)cc3)n[nH]c2C2CCNCC2)n1
≤ 1000 nM

Request: CCNC(=O)c1csc(-c2sc(C)nc2-c2ccc(F)cc2)n1
≤ 1000 nM

###

# SYSTEM NAME: active p38 alpha enzyme (Upstate Biotechnology) (Homo sapiens, UniProt Q16539)
# Construct: purchased Upstate Biotechnology
# Sequence (Q16539 whole entry): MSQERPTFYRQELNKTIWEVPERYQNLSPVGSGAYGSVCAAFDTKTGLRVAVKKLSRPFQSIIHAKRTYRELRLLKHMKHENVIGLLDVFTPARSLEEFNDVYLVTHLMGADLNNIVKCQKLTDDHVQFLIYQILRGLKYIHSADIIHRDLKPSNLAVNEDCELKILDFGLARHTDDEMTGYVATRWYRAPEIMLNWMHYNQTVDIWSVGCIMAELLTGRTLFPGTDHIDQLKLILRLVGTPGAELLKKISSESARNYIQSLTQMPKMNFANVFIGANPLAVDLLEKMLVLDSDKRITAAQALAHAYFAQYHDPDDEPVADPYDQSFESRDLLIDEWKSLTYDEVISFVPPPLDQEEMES
# EXPERIMENT SUMMARY: p38α biochemical assay (ATP turnover, luminescent detection, Cambrex PKlight)
# RUN PARAMETERS: p38α biochemical assay, Table 1 Biological Activity
EXPERIMENTAL ENDPOINT: IC50

COMPOUND: Cc1onc(-c2ccc(Cl)cc2)c1-c1ccn(C(=O)N(C)C(C)C)n1
EXPERIMENTAL ENDPOINT: IC50
REPORTED MEASUREMENT: > 1000 nM
//
COMPOUND: CC(C)NC(=O)c1csc(-c2c(-c3ccc(F)cc3)noc2CNC(=O)c2cscn2)n1
EXPERIMENTAL ENDPOINT: IC50
REPORTED MEASUREMENT: > 1000 nM
//
COMPOUND: CC(C)NC(=O)c1csc(-c2oc(CN3CCN(C(=O)c4ccc(F)c(F)c4)CC3)nc2-c2ccc(F)cc2)n1
EXPERIMENTAL ENDPOINT: IC50
REPORTED MEASUREMENT: > 1000 nM
//
COMPOUND: CC(C)NC(=O)c1csc(-c2[nH]c(CN(C)C)nc2-c2ccc(F)cc2)n1
EXPERIMENTAL ENDPOINT: IC50
REPORTED MEASUREMENT: ≤ 1000 nM
//
COMPOUND: CC(C)Cc1ccc(C(C)C(=O)N2CCN(Cc3nc(-c4ccc(F)cc4)c(-c4nc(C(=O)NC(C)C)cs4)o3)CC2)cc1 (stereo not drawn)
EXPERIMENTAL ENDPOINT: IC50
REPORTED MEASUREMENT: ≤ 1000 nM

Name the reported IC50 value associated with the compound Cc1ccc(F)cc1C(=O)NCc1onc(-c2ccc(F)cc2)c1-c1nc(C(=O)NC(C)C)cs1
> 1000 nM

And what about the compound CC(=O)Nc1cccc(C(=O)NCc2onc(-c3ccc(F)cc3)c2-c2nc(C(=O)NC(C)C)cs2)c1 ?
> 1000 nM

Entry to check: CC(C)NC(=O)c1csc(-c2oc(CN3CCN(C(=O)c4ccc(OCc5ccccc5)cc4)CC3)nc2-c2ccc(F)cc2)n1
> 1000 nM

Then this compound: CCOC(=O)CC(=O)NCc1nc(-c2ccc(F)cc2)c(-c2nc(C(=O)NC(C)C)cs2)o1
≤ 1000 nM

Now the compound CC(=O)c1ccccc1C(=O)NCc1nc(-c2ccc(F)cc2)c(-c2nc(C(=O)NC(C)C)cs2)o1
> 1000 nM

Repeat with Cc1ccc(C(=O)N2CCN(Cc3nc(-c4ccc(F)cc4)c(-c4nc(C(=O)NC(C)C)cs4)o3)CC2)cc1
> 1000 nM

Try this compound next: Cc1cccc(C(=O)NCc2onc(-c3ccc(F)cc3)c2-c2nc(C(=O)NC(C)C)cs2)c1[N+](=O)[O-]
> 1000 nM

###

Reported values of pIC50 for individual entries
# SYSTEM NAME: active p38 alpha enzyme (Upstate Biotechnology) (Homo sapiens)
# Construct: purchased Upstate Biotechnology
# EXPERIMENT SUMMARY: p38α biochemical assay (ATP turnover, luminescent detection, Cambrex PKlight)
# RUN PARAMETERS: p38α biochemical assay, Table 1 Biological Activity
pIC50: −log10 of the molar value.

Some solved cases for reference:
STRUCTURE SMILES: CC(C)NC(=O)c1csc(-c2oc(CN3CCN(C(=O)c4c(F)c(F)c(F)c(F)c4F)CC3)nc2-c2ccc(F)cc2)n1
SYSTEM NAME: active p38 alpha enzyme (Upstate Biotechnology) (Homo sapiens)
EXPERIMENTAL ENDPOINT: pIC50
REPORTED MEASUREMENT: ≥ 6.00
--
STRUCTURE SMILES: CC(C)NC(=O)c1csc(-c2oc(CN3CCN(C(=O)CC4Cc5ccccc5C4)CC3)nc2-c2ccc(F)cc2)n1
SYSTEM NAME: active p38 alpha enzyme (Upstate Biotechnology) (Homo sapiens)
EXPERIMENTAL ENDPOINT: pIC50
REPORTED MEASUREMENT: ≥ 6.00
--
STRUCTURE SMILES: COc1cc(/C=C/C(=O)NCc2onc(-c3ccc(F)cc3)c2-c2nc(C(=O)NC(C)C)cs2)ccc1O
SYSTEM NAME: active p38 alpha enzyme (Upstate Biotechnology) (Homo sapiens)
EXPERIMENTAL ENDPOINT: pIC50
REPORTED MEASUREMENT: < 6.00

Below: the item to evaluate.
Looking for the measured pIC50 of CC(C)NC(=O)c1csc(-c2c(-c3ccc(F)cc3)noc2CNC(=O)C(Cl)(Cl)Cl)n1 , can you help?
< 6.00

###

# Lookup of reported IC50 keyed by entry
# SYSTEM NAME: active p38 alpha enzyme (Upstate Biotechnology) (Homo sapiens, UniProt Q16539)
# Construct: purchased Upstate Biotechnology
# EXPERIMENT SUMMARY: p38α biochemical assay (ATP turnover, luminescent detection, Cambrex PKlight)
# RUN PARAMETERS: p38α kinase; Table 1 Biological Activity

Solved cases below.
COMPOUND: Cc1nc(-c2ccc(F)cc2)c(-c2nc(C(=O)Nc3ccccc3C(C)(C)C)cs2)s1
EXPERIMENTAL ENDPOINT: IC50
REPORTED MEASUREMENT: > 1000 nM

COMPOUND: CCN(CCCCO)Cc1nc(-c2ccc(F)cc2)c(-c2nc(C(=O)NC(C)C)cs2)o1
EXPERIMENTAL ENDPOINT: IC50
REPORTED MEASUREMENT: > 1000 nM

COMPOUND: Cc1nc(-c2ccc(F)cc2)c(-c2nc(C(=O)NCc3cccc(C(F)(F)F)c3)cs2)s1
EXPERIMENTAL ENDPOINT: IC50
REPORTED MEASUREMENT: ≤ 1000 nM

For the compound Cc1nc(-c2ccc(F)cc2)c(-c2nc(C(=O)Nc3c(C)cccc3C(C)C)cs2)s1 , what IC50 is on record?
> 1000 nM

Consider next the compound CC(C)NC(=O)c1csc(-c2c(-c3ccc(F)cc3)n[nH]c2C2CCN(C(=O)c3ccc(C(F)(F)F)cc3[N+](=O)[O-])CC2)n1 in the same way.
> 1000 nM

Param item: Cc1nc(-c2ccc(F)cc2)c(-c2nc(C(=O)NC3CCC(C)CC3)cs2)s1 (stereo not drawn)
≤ 1000 nM
